System: glucuronidation (GPCG formation)
Test: GPC glucuronidation in bovine liver microsomes (enzyme kinetics, species comparison)
Conditions: bovine, bovine liver microsomes, pH 7.4

Smiles Str: CC(C)=C1CC=C([C@H]2CC[C@]3(C)[C@@H]2CC[C@@H]2[C@@]4(C)CC[C@H](O)C(C)(C)[C@@H]4CC[C@]23C)C1=O
Km at 30 min: 12.2 µM

###

System: glucuronidation (GPCG formation)
Experiment: GPC glucuronidation in mouse liver microsomes (enzyme kinetics, species comparison)
Conditions: ICR/CD-1, mouse, mouse liver microsomes, pH 7.4
Attribute Measured: Km at 30 min (µM)

Compound: CC(C)=C1CC=C([C@H]2CC[C@]3(C)[C@@H]2CC[C@@H]2[C@@]4(C)CC[C@H](O)C(C)(C)[C@@H]4CC[C@]23C)C1=O [GPC, Gypensapogenin C]
Attribute Measured: Km at 30 min
Unit Text: µM
Endpoint Value: 10

###

Assay: GPC glucuronidation in bovine liver microsomes (enzyme kinetics, species comparison)
Details: bovine, bovine liver microsomes, pH 7.4
Attribute Measured: microsomal CLint (µL/min/mg)

Smiles Str: CC(C)=C1CC=C([C@H]2CC[C@]3(C)[C@@H]2CC[C@@H]2[C@@]4(C)CC[C@H](O)C(C)(C)[C@@H]4CC[C@]23C)C1=O
Endpoint Value: 259

###

System: glucuronidation (GPCG formation)
Assay: GPC glucuronidation in rabbit liver microsomes (enzyme kinetics, species comparison)
Conditions: New Zealand, rabbit, rabbit liver microsomes, pH 7.4
Attribute Measured: Km at 30 min (µM)

Compound: CC(C)=C1CC=C([C@H]2CC[C@]3(C)[C@@H]2CC[C@@H]2[C@@]4(C)CC[C@H](O)C(C)(C)[C@@H]4CC[C@]23C)C1=O [GPC, Gypensapogenin C]
Attribute Measured: Km at 30 min
Endpoint Value: 16.2

###

Experiment: GPC glucuronidation in pig liver microsomes (enzyme kinetics, species comparison)
Details: minipig, pig, pig liver microsomes, pH 7.4

Smiles Str: CC(C)=C1CC=C([C@H]2CC[C@]3(C)[C@@H]2CC[C@@H]2[C@@]4(C)CC[C@H](O)C(C)(C)[C@@H]4CC[C@]23C)C1=O
microsomal CLint / µL/min/mg: 147

###

Assay: GPC glucuronidation in mouse liver microsomes (enzyme kinetics, species comparison)
Details: ICR/CD-1, mouse, mouse liver microsomes, pH 7.4

Molecule: CC(C)=C1CC=C([C@H]2CC[C@]3(C)[C@@H]2CC[C@@H]2[C@@]4(C)CC[C@H](O)C(C)(C)[C@@H]4CC[C@]23C)C1=O [GPC, Gypensapogenin C]
microsomal CLint / µL/min/mg: 690

###

System: glucuronidation (GPCG formation)
Experiment: GPC glucuronidation in dog liver microsomes (enzyme kinetics, species comparison)
Settings: Beagle, dog, dog liver microsomes, pH 7.4

Smiles Str: CC(C)=C1CC=C([C@H]2CC[C@]3(C)[C@@H]2CC[C@@H]2[C@@]4(C)CC[C@H](O)C(C)(C)[C@@H]4CC[C@]23C)C1=O
Km at 30 min / µM: 9.56

###

Tested on: glucuronidation (GPCG formation)
Assay: GPC glucuronidation in pig liver microsomes (enzyme kinetics, species comparison)
Conditions: pig, pig liver microsomes, pH 7.4

Compound: CC(C)=C1CC=C([C@H]2CC[C@]3(C)[C@@H]2CC[C@@H]2[C@@]4(C)CC[C@H](O)C(C)(C)[C@@H]4CC[C@]23C)C1=O [GPC, Gypensapogenin C]
Target Or Test System: glucuronidation (GPCG formation)
Km at 30 min, µM: 9.58
